- assayed_target: L-lactate dehydrogenase (Homo sapiens, UniProt V9HWB9)
- method_description: Inhibition of LDH in human A673 cells assessed as reduction in lactate production preincubated for 2 hrs measured after 30 mins by high throughput fluorescence assay
- Assay type: cell-based
recorded_endpoint: IC50 (µM)
Answer in µM, number only, no unit symbol.

Please report the recorded IC50 for `COc1ncc(-c2ccc3c(Nc4cc(Oc5cc(F)cc(F)c5)cc(C(=O)O)c4)c(S(=O)(=O)NC4CC4)cnc3c2)c(OC)n1` . 14.5

* * *

- assayed_target: L-lactate dehydrogenase A chain (Homo sapiens)
recorded_endpoint: pEC50
Please keep in mind that pEC50 is minus log10 of the molar concentration; only the number is needed.

Please report the recorded pEC50 for `Cc1nc2ccc(NC(=O)CCNC(=O)CCCc3ccc(CC(C(=O)O)C(=O)O)cc3)cc2s1` . 5.80

* * *

- assayed_target: Isocitrate dehydrogenase [NADP] cytoplasmic (Homo sapiens)
- Sequence (O75874 whole entry): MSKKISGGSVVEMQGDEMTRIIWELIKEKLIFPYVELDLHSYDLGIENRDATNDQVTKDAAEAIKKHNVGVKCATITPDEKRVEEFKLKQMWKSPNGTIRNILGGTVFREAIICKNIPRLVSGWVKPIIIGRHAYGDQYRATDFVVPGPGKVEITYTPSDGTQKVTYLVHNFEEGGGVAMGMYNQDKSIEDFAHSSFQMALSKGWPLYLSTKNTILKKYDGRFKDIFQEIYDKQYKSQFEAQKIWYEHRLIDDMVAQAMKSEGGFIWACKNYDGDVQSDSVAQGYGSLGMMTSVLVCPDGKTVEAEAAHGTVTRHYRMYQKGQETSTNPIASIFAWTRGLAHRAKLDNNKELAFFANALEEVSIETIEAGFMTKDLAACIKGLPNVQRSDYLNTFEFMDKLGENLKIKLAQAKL
pIC50: −log10 of the molar value.
recorded_endpoint: pIC50

Example entries begin here.
* NS(=O)(=O)c1ccc(Cc2c(-c3cccc(-c4ccccc4F)c3)nn(-c3nc(C(=O)O)cs3)c2O)cc1 | < 4.24
* Nc1c(Cc2ccc(S(N)(=O)=O)cc2)c(-c2cccc(-c3ccccc3)c2)nn1-c1nc(C(=O)O)cs1 | < 4.24

Below: the item to evaluate.
Please report the recorded pIC50 for `O=C1N[C@](c2ccc(N3CCOCC3)cc2)(c2ccsc2)CC(O)=C1Sc1ccccc1Cl` . < 4.24

* * *

Measured IC50 on L-lactate dehydrogenase A chain (Homo sapiens, UniProt P00338) follows.

Example entries begin here.
- O=C(O)c1csc(-n2nc(-c3ccncc3)cc2O)n1: > 57 µM
- O=C(O)c1csc(-n2nc(-c3cccc(F)c3)cc2O)n1: > 57 µM
- NS(=O)(=O)c1ccc(Cc2c(-c3ccccc3)nn(-c3nc(C(=O)O)cs3)c2-c2ccccc2)cc1: 0.139 µM
- O=C(O)c1csc(-n2nc(-c3cc(F)cc(F)c3)cc2O)n1: > 57 µM
- O=C(O)c1csc(-n2nc(-c3ccc(F)c(F)c3)cc2O)n1: > 57 µM

Below: the item to evaluate.
Item: `Cc1cc(-c2ccccc2)nn1-c1nc(C(=O)O)cs1` Test system: L-lactate dehydrogenase A chain (Homo sapiens, UniProt P00338) Read-out: IC50 Value: ? > 57 µM

* * *

- assayed_target: L-lactate dehydrogenase A chain (Homo sapiens)
recorded_endpoint: IC50

Example entries begin here.
* O=C(O)c1csc(-n2nc(-c3ccccn3)cc2O)n1 | > 57 µM
* NS(=O)(=O)c1cccc(Cc2c(-c3ccc(F)c(F)c3)nn(-c3nc(C(=O)O)cs3)c2O)c1 | > 57 µM
* O=C(O)c1ccc(Cc2c(-c3cccc(-c4ccccc4)c3)nn(-c3nc(C(=O)O)cs3)c2O)cc1 | 33.8 µM

Item: `O=C(O)c1csc(-n2nc(-c3cccc(OC(F)(F)F)c3)cc2O)n1` Test system: L-lactate dehydrogenase A chain (Homo sapiens) Read-out: IC50 Value: ? > 57 µM

Item: `NS(=O)(=O)c1ccc(Cc2c(-c3ccccc3)nn(-c3nc(C(=O)O)cs3)c2-c2ccncc2)cc1` Test system: L-lactate dehydrogenase A chain (Homo sapiens) Read-out: IC50 Value: ? 6.23 µM

Item: `NS(=O)(=O)c1ccc(Cc2c(-c3cccc(-c4ccccc4)c3)nn(-c3nc(-c4nnn[nH]4)cs3)c2O)cc1` Test system: L-lactate dehydrogenase A chain (Homo sapiens) Read-out: IC50 Value: ? > 57 µM

Item: `COc1ccc(-c2cc(O)n(-c3nc(C(=O)O)cs3)n2)cc1` Test system: L-lactate dehydrogenase A chain (Homo sapiens) Read-out: IC50 Value: ? > 57 µM

Item: `O=C(O)c1csc(-n2nc(-c3ccc(F)cc3F)cc2O)n1` Test system: L-lactate dehydrogenase A chain (Homo sapiens) Read-out: IC50 Value: ? > 57 µM

Item: `Nc1cc(-c2ccccc2)nn1-c1nc(C(=O)O)cs1` Test system: L-lactate dehydrogenase A chain (Homo sapiens) Read-out: IC50 Value: ? > 57 µM

Item: `CC(C)c1cc(-c2ccccc2)nn1-c1nc(C(=O)O)cs1` Test system: L-lactate dehydrogenase A chain (Homo sapiens) Read-out: IC50 Value: ? > 57 µM

Item: `O=C(O)c1csc(-n2nc(-c3ccccc3)cc2C(F)F)n1` Test system: L-lactate dehydrogenase A chain (Homo sapiens) Read-out: IC50 Value: ? > 57 µM

Item: `NS(=O)(=O)c1ccc(Cc2cn(-c3nc(C(=O)O)cs3)nc2-c2ccc(F)c(F)c2)cc1` Test system: L-lactate dehydrogenase A chain (Homo sapiens) Read-out: IC50 Value: ? 0.095 µM

Item: `O=C(O)c1csc(-n2nc(-c3cccc(Cl)c3)cc2C(F)(F)F)n1` Test system: L-lactate dehydrogenase A chain (Homo sapiens) Read-out: IC50 Value: ? > 57 µM

Item: `CCOC(=O)c1csc(-n2nc(-c3cccc(-c4ccccc4)c3)c(Cc3ccc(S(N)(=O)=O)cc3)c2C(F)(F)F)n1` Test system: L-lactate dehydrogenase A chain (Homo sapiens) Read-out: IC50 Value: ? > 57 µM

Item: `O=C(O)c1csc(-n2nc(-c3ccc(Cl)c(Cl)c3)cc2O)n1` Test system: L-lactate dehydrogenase A chain (Homo sapiens) Read-out: IC50 Value: ? > 57 µM

Item: `NS(=O)(=O)c1ccc(Cc2cn(-c3nc(C(=O)O)cs3)nc2-c2ccccc2)cc1` Test system: L-lactate dehydrogenase A chain (Homo sapiens) Read-out: IC50 Value: ? 0.176 µM

Item: NS(=O)(=O)c1ccc(Cc2cn(-c3nc(C(O)C(F)(F)F)cs3)nc2-c2ccccc2)cc1 (stereo not drawn) Test system: L-lactate dehydrogenase A chain (Homo sapiens) Read-out: IC50 Value: ? > 57 µM

Item: `O=C(O)c1csc(-n2nc(-c3ccccc3F)cc2O)n1` Test system: L-lactate dehydrogenase A chain (Homo sapiens) Read-out: IC50 Value: ? > 57 µM
